Hello, the source for this data is patent US20210024639A1, in case you need it.

target_or_system: native human MET on living human cells (human, UniProt P08581 25-1390)
Sequence (P08581 25-1390): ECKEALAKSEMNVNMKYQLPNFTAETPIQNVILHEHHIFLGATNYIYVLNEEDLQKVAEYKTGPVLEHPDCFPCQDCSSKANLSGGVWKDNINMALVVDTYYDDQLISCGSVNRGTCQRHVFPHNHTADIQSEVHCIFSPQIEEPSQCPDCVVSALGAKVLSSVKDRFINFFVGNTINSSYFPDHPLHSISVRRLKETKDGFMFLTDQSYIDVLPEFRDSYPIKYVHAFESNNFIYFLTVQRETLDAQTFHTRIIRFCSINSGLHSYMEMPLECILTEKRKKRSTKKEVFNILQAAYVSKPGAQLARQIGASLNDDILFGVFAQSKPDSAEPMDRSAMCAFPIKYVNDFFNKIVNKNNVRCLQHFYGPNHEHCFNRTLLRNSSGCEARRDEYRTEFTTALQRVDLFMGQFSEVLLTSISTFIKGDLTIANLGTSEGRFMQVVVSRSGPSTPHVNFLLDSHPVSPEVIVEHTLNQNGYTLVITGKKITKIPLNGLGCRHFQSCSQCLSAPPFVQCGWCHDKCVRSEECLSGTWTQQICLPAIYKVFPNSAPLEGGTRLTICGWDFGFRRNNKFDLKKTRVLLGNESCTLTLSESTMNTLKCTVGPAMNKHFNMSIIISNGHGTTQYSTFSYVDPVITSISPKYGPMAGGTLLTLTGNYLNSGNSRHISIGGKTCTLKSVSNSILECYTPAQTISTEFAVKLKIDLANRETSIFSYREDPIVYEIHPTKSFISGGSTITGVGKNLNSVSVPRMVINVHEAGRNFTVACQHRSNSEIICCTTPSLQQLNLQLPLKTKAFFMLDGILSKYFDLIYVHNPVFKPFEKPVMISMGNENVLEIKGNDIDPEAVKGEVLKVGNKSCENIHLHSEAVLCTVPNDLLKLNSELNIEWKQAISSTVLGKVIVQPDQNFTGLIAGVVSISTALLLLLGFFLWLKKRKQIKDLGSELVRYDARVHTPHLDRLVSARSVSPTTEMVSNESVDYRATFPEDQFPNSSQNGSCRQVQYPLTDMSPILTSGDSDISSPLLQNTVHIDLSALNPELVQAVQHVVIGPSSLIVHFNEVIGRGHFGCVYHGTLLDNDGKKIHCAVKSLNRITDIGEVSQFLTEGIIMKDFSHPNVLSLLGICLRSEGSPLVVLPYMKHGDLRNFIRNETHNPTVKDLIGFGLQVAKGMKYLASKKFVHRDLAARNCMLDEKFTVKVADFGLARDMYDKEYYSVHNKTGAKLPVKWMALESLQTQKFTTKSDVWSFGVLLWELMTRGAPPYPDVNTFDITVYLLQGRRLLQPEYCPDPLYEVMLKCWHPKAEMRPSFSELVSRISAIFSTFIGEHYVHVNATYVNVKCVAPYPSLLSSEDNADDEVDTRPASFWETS
test: cell-based or functional assay
property_measured: cell scattering score, HPAF-II, 9.000 nM (score 0-4)
State the answer as a number, implicitly in score 0-4.

Consider the binder chimeric llama-human IgG1 mAb 71C3 (antibody, V domains shown) VH: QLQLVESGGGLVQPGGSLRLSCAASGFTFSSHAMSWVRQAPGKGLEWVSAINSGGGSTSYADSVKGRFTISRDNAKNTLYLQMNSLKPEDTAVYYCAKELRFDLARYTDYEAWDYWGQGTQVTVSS VL: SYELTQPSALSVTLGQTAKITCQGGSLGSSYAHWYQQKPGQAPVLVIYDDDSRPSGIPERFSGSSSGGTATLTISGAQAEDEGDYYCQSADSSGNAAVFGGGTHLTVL and give its measured cell scattering score, HPAF-II, 9.000 nM.
4
